Molecular target: BRD4^BD2 (Homo sapiens)
Construct: to the isolated BD1 and BD2 domains of BRD2, BRD3 and BRD4
Experiment: competitive fluorescence polarization assay, BRD4 BD2 -/+ presenter protein
Assay type: binding
Conditions: 15 µM FKBP51FK1; read-out: Binding to BRD4BD2 + FKBP51FK1 Kd
value kind: Kd (nM)
Reply with just the number (in nM).

// solved cases for Kd follow
{"molecule": "Cc1sc2c(c1C)C(c1ccc(Cl)cc1)=NC(CC(=O)NCCOCCn1cc(COCC3CN(Cc4ccccn4)C(=O)C4CCCC3N4S(=O)(=O)c3cc(Cl)cc(Cl)c3)nn1)c1nnc(C)n1-2 (stereo not shown)", "recorded value": 470}
{"molecule": "Cc1sc2c(c1C)C(c1ccc(Cl)cc1)=NC(CC(=O)NCCOCCn1cc(COCC3CN(C(C)c4ccccn4)C(=O)C4CCCC3N4S(=O)(=O)c3cc(Cl)cc(Cl)c3)nn1)c1nnc(C)n1-2 (stereo not shown)", "recorded value": 1000}
{"molecule": "Cc1sc2c(c1C)C(c1ccc(Cl)cc1)=NC(CC(=O)N1CCC3(CC1)CC(n1cc(C4CN(Cc5ccccn5)C(=O)C5CCCC4N5S(=O)(=O)c4cc(Cl)cc(Cl)c4)nn1)C3)c1nnc(C)n1-2 (stereo not shown) [a13c]", "recorded value": 190}

Turning to the following molecule.
Q: Any idea what Kd was measured for Cc1sc2c(c1C)C(c1ccc(C#CCNC(=O)COCCn3cc(C4CN(Cc5ccccn5)C(=O)C5CCCC4N5S(=O)(=O)c4cc(Cl)cc(Cl)c4)nn3)cc1)=NC(CC(=O)OC(C)(C)C)c1nnc(C)n1-2 (stereo not shown) ?
A: 250

These entries and their values trace back to paper PMC13586308.
